Measured values drawn from patent US9714232B2 for this set.

# target.of.assay: serotonin transporter in rat synaptosome (Rattus norvegicus (Rat))
# Sequence (P31652 whole entry): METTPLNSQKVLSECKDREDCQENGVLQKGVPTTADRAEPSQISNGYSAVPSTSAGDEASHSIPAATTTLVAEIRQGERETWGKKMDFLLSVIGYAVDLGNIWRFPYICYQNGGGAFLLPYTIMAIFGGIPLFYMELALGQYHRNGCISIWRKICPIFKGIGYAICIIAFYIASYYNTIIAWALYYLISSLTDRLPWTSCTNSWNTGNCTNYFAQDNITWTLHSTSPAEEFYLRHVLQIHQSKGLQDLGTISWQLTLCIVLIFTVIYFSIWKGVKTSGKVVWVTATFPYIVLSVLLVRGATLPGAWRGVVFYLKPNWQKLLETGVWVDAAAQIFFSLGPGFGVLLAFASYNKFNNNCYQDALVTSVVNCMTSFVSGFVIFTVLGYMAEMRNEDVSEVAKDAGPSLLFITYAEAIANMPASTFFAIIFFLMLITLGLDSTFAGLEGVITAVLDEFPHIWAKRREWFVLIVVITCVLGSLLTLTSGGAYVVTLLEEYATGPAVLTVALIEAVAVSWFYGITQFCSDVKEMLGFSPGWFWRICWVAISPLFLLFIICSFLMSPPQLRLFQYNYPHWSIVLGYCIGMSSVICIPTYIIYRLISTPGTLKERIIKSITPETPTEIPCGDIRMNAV
# method.description: Inhibitory effect on [3H]5-HT uptake in rat synaptosome
# assay.context: rat brain synaptosomes, 0.1 μCi [3H]5-HT, 37° C., 15 minutes
measured.attribute: pIC50
Recall that pIC50 is obtained by taking minus log10 of the concentration measured in molar.

Reference set (5 entries):
N#Cc1ccc2[nH]cc(CCN3CCN(c4ccc(-n5ccccc5=O)cc4)CC3)c2c1 [Example 13]	8.59
COc1ccn(-c2ccc(N3CCN(CCCCc4c[nH]c5ccc(C#N)cc45)CC3)cc2)c(=O)c1 [Example 21]	8.13
COc1ccn(-c2ccc(N3CCN(CCCCCc4c[nH]c5ccc(C#N)cc45)CC3)cc2)c(=O)c1 [Example 24]	8.26
N#Cc1ccc2[nH]cc(CCCCN3CCN(c4ccc(-n5ccc6occc6c5=O)cc4)CC3)c2c1 [Example 33]	9.28
N#Cc1ccc2[nH]cc(CCCN3CCN(c4ccc(-n5ccc6ncccc6c5=O)cc4)CC3)c2c1 [Example 32]	9.03

Would you kindly look at the next entry?
Any idea what its pIC50 is? The molecule is N#Cc1ccc2[nH]cc(CCCCN3CCN(c4ccc(-n5ccc6ncccc6c5=O)cc4)CC3)c2c1 [Example 31]
9.64
